- Test system: SNB-19 CNS
- experimentNotes: NCI tumour cell line growth inhibition, 48 h

{"columns": ["compound", "TGI"],
 "data": [
  ["CN(C)CCSS(=O)(=O)O", "> 100 µM"],
  ["COC(=O)C1C(O)C(C)C(O)C(C)C=C(C)C2=C3C(=C(C)C(=O)c4c(O)c(c(C)c(OC(C)=O)c43)NC(=O)C(C)=C/C=C\\C(C)C(O)C(C)C1O)OCO2 (stereo unspecified)", "> 100 µM"],
  ["Cn1cc(-c2ccc3nnc(Sc4ccc5ncccc5c4)n3n2)cn1", "> 100 µM"],
  ["c1ccc(/C(=N/Nc2ccncn2)c2ccccn2)cc1", "> 100 µM"],
  ["Cc1c(NC(=S)NC(=O)c2ccc([N+](=O)[O-])cc2)c(=O)n(-c2ccccc2)n1C", "> 100 µM"],
  ["CC(C)/C(Cl)=N\\OC(NC(=O)P(=O)(c1ccccc1)c1ccccc1)(C(F)(F)F)C(F)(F)F", "35.3 µM"]
]}

---

- Tested on: NCI-H460 lung
- experimentNotes: NCI tumour cell line growth inhibition, 48 h
Reported TGI values follow for various molecules

{"columns": ["molecule", "testedTarget", "TGI"],
 "data": [
  ["O=c1cc(N/N=C/c2ccc(F)cc2)c2cc(Cl)ccc2[nH]1", "NCI-H460 lung", "> 100 µM"],
  ["COc1ccc(C(=O)CC(c2ccccc2)[C@H]2C(c3ccc(OC)cc3)=Nc3c(nc(SC)n(C)c3=O)NC2c2ccccc2)cc1 (stereo partly specified)", "NCI-H460 lung", "> 100 µM"],
  ["Cc1nc2ccc(NC(=O)CCNC(=O)CCCc3ccc(CC(C(=O)O)C(=O)O)cc3)cc2s1", "NCI-H460 lung", "> 100 µM"],
  ["COc1ccc(CCn2c(=O)c3ccccc3n(C)c2=O)cc1", "NCI-H460 lung", "> 100 µM"],
  ["O=c1[nH]c2nc(NC3CCOCC3)ncc2cc1Oc1ccc(F)cc1F", "NCI-H460 lung", "> 25 µM"],
  ["CN1CC2=C(NC(=S)NC2c2ccccc2)/C(=C/c2ccccc2)C1 (stereo unspecified)", "NCI-H460 lung", "> 100 µM"],
  ["CN(C)CCSS(=O)(=O)O", "NCI-H460 lung", "34.7 µM"],
  ["O=C1CC(=O)n2cnc3cccc(c32)N1", "NCI-H460 lung", "> 100 µM"],
  ["CCN(CC)C(=S)SS(=O)(=O)c1cccc(N)c1", "NCI-H460 lung", "> 100 µM"],
  ["COC(=O)C1C(=O)N(C)C(=O)N2CCCC12 (stereo unspecified)", "NCI-H460 lung", "> 100 µM"],
  ["O=C(Nn1c(-c2ccccc2)nc2ccccc2c1=O)c1ccccc1O", "NCI-H460 lung", "> 100 µM"],
  ["CN(C)CCn1c(CO)nc2c1c(=O)n(C)c(=O)n2C", "NCI-H460 lung", "> 100 µM"],
  ["CC(C)/C(Cl)=N\\OC(NC(=O)P(=O)(c1ccccc1)c1ccccc1)(C(F)(F)F)C(F)(F)F", "NCI-H460 lung", "53.7 µM"],
  ["O=C([O][Sn]([O]C(=O)c1ccccn1)([c]1ccccc1)[c]1ccccc1)c1ccccn1", "NCI-H460 lung", "26.2 µM"],
  ["COc1cccc(N[C@@H]2c3cc4c(cc3C(c3cc(OC)c(O)c(OC)c3)[C@H]3C(=O)OCC32)OCO4)c1 (stereo partly specified)", "NCI-H460 lung", "1.6 µM"],
  ["CN(C)c1nc2ccccc2c2c1c1c(n2Cc2ccccc2)-c2ccccc2C1=O", "NCI-H460 lung", "> 100 µM"],
  ["CC(C)(C)[Si](C)(C)OCc1cccc(OCCOc2cccc(CO[Si](C)(C)C(C)(C)C)c2[N+](=O)[O-])c1[N+](=O)[O-]", "NCI-H460 lung", "> 100 µM"],
  ["COc1cc(C2C(Cl)C(=O)N2c2c(C)n(C)n(-c3ccccc3)c2=O)ccc1O (stereo unspecified)", "NCI-H460 lung", "59.7 µM"],
  ["CCOP(=O)(OCC)/C(=C/c1cccs1)CC(C)=O", "NCI-H460 lung", "> 100 µM"],
  ["C1CC2CN(CCCN3CCOCC3)C(C1)O2 (stereo unspecified)", "NCI-H460 lung", "> 100 µM"],
  ["C=CCO/N=C(\\OC(=O)c1ccc([N+](=O)[O-])cc1)c1ccccc1", "NCI-H460 lung", "> 100 µM"]
]}

Every entry's value here was drawn from PubChem BioAssay (NCI).
